The reported measurements were obtained from PubChem BioAssay (NCI).

System: NCI-H522 lung
ASSAY_OVERVIEW: NCI-60 one-dose screen, 48 h (100 = growth as untreated, 0 = no growth, -100 = all killed)
CONDITION: 10 µM unless noted
Description: Growth inhibition of the NCI-H522 human Non-Small Cell Lung tumor cell line is measured as a screen for anti-cancer activity. Cells are grown in 96 well plates and exposed to the test compound for 48 hours. Compounds are tested at a single concentration, which is 10^-5 M for most compounds. The reported endpoint is percent growth (GI% or GIPRCNT), where numbers from 0 - 100% represent growth inhibition, and numbers from -100% - 0 represent cell death. […]
About 83,000 compounds went through this panel and 20% of them were active in at least one assay; those are over-represented in the sample as a whole.
Quick rule: growth of at least 80% means condition met, below that means condition not met.

API: above_or_equal(metric=growth, cutoff=80%) for item `O=C1/C(=C/c2ccccn2)SC(=S)N1N1CCOCC1` condition met

API: above_or_equal(metric=growth, cutoff=80%) for item COc1ccc(C2CC(n3ccnc3)c3cc(OC)c(OC)c(OC)c32)cc1O (stereo unspecified) condition not met

API: above_or_equal(metric=growth, cutoff=80%) for item `Cn1c(=O)[nH]c(=O)c2nc3c(nc21)-c1ccccc1C3=O` condition met

API: above_or_equal(metric=growth, cutoff=80%) for item `O=C1C(Cl)=C(Nc2ccccc2)C(=O)c2ccccc21` condition not met

API: above_or_equal(metric=growth, cutoff=80%) for item `CC1(C)CC[C@]23CC[C@]4(C)[C@H](CC[C@@H]5[C@@]6(C)CCNCC(C)(C)[C@@H]6CC[C@]54C)[C@H]2[C@H]1OC3` condition met

API: above_or_equal(metric=growth, cutoff=80%) for item `N#Cc1c(-c2cccc(Cl)c2)cc(-c2cccnc2)[nH]c1=O` condition not met

API: above_or_equal(metric=growth, cutoff=80%) for item `COc1cc(-c2ccc[nH]2)[nH]c1/C=C1\N=C(C)C(CC(=O)OCC(C)(C)C)=C1C` condition not met

API: above_or_equal(metric=growth, cutoff=80%) for item `CN(C)Cc1cc(C(C)(C)C)cc(Br)c1O` condition met

API: above_or_equal(metric=growth, cutoff=80%) for item `C[C@@H]1CN(c2cnc(C(=O)Nc3cc(F)cc4cccnc34)cn2)C[C@H](C)N1` condition not met

API: above_or_equal(metric=growth, cutoff=80%) for item `Cc1cn(C)cn1` condition met

API: above_or_equal(metric=growth, cutoff=80%) for item `COc1ccc(-c2cc(-c3cc(OC)ccc3OC)nc(SCC(C)=O)c2C#N)cc1` condition not met

API: above_or_equal(metric=growth, cutoff=80%) for item `COc1cc([C@@H](CCO)C[C@H](C)c2ccc3ccccc3c2)cc(OC)c1OC` condition not met

API: above_or_equal(metric=growth, cutoff=80%) for item `COc1ccc(/C=C(/C(=O)N2CCNCC2)c2cc(OC)c(OC)c(OC)c2)cc1O` condition not met

API: above_or_equal(metric=growth, cutoff=80%) for item `COc1ccc(N/N=C/c2cn(-c3ccc(C(=O)O)cc3)nc2-c2cc3ccccc3oc2=O)cc1` condition not met
